# PROCEDURE_SUMMARY: Crossover PK study: sumatriptan plasma levels (LC/MS/MS) after ID, junctional or SC administration; Tmax, Cmax, AUC, relative F
# Type: in vivo
# PROTOCOL_CONDITIONS: Yucatan, minipig, plasma, AUC 10 min., 3 × 3 mm × 34 g, 30 mg/ml; 2 minute metered bolus; Yucatan miniswine; mean
MEASUREMENT_TYPE: AUC 0-10 min (ng·h/mL)
Only the number, expressed in ng·h/mL, is required.

Query block: # lookup: AUC 0-10 min of "CNS(=O)(=O)Cc1ccc2[nH]cc(CCN(C)C)c2c1"
Result block: 53.4

###

# PROCEDURE_SUMMARY: Crossover PK study: sumatriptan plasma levels (LC/MS/MS) after ID, junctional or SC administration; Tmax, Cmax, AUC, relative F
# Type: in vivo
# PROTOCOL_CONDITIONS: Yucatan, minipig, plasma, sc, AUC 10 min., 12 mg/ml; Yucatan miniswine; mean
MEASUREMENT_TYPE: AUC 0-10 min (ng·h/mL)
// return numeric value only (unit: ng·h/mL, not printed)

Query block: What does the record list as AUC 0-10 min for CNS(=O)(=O)Cc1ccc2[nH]cc(CCN(C)C)c2c1 [sumatriptan] ?
Result block: 45.3

###

# PROCEDURE_SUMMARY: Crossover PK study: sumatriptan plasma levels (LC/MS/MS) after ID, junctional or SC administration; Tmax, Cmax, AUC, relative F
# Assay type: in vivo
# PROTOCOL_CONDITIONS: Yucatan, minipig, plasma, iv, AUC 10 min., 12 mg/ml; Yucatan miniswine; mean
MEASUREMENT_TYPE: AUC 0-10 min (ng·h/mL)
Return type: number; implicit unit ng·h/mL.

Query block: Which measured AUC 0-10 min value corresponds to CNS(=O)(=O)Cc1ccc2[nH]cc(CCN(C)C)c2c1 [sumatriptan] ?
Result block: 59.8

###

# PROCEDURE_SUMMARY: Crossover PK study: sumatriptan plasma levels (LC/MS/MS) after ID, junctional or SC administration; Tmax, Cmax, AUC, relative F
# Type: in vivo
# PROTOCOL_CONDITIONS: Yucatan, minipig, plasma, AUC 10 min., 3 × 2 mm × 34 g, 30 mg/ml; Yucatan miniswine; mean
MEASUREMENT_TYPE: AUC 0-10 min (ng·h/mL)
Answer with a number only, understood to be in ng·h/mL.

Query block: State the recorded AUC 0-10 min for this entry: "CNS(=O)(=O)Cc1ccc2[nH]cc(CCN(C)C)c2c1"
Result block: 69.5

###

# PROCEDURE_SUMMARY: Crossover PK study: sumatriptan plasma levels (LC/MS/MS) after ID, junctional or SC administration; Tmax, Cmax, AUC, relative F
# Type: in vivo
# PROTOCOL_CONDITIONS: Yucatan, minipig, plasma, AUC 10 min., 3 × 3 mm × 34 g, 12 mg/ml; 5 minutes metered bolus; Yucatan miniswine; mean
MEASUREMENT_TYPE: AUC 0-10 min (ng·h/mL)
State the answer as a number, implicitly in ng·h/mL.

Query block: For the molecule shown here, CNS(=O)(=O)Cc1ccc2[nH]cc(CCN(C)C)c2c1 [sumatriptan] , give the reported AUC 0-10 min.
Result block: 52.8
